Experiment: Serum stability of prodrugs (hydrolysis by human serum)
Format: in vitro ADME
Conditions: 37° C., 2 hr
Exercise: for every item that follows, state its recorded Conc. at t = 2 hr (prodrug).
Your answer is read as µg/mL, so omit the unit and give the number.

Sample CSCC(=O)N[C@H]1Cc2cccc(C(=O)OCOC(=O)OC(C)C)c2OB1O — what was its Conc. at t = 2 hr (prodrug)? 550

Sample CSCC(=O)N[C@H]1Cc2cccc(C(=O)OCOC(=O)C(C)(C)C)c2OB1O — what was its Conc. at t = 2 hr (prodrug)? 1350

Sample CCC(CC)C(=O)OCOC(=O)c1cccc2c1OB(O)[C@@H](NC(=O)CSC)C2 — what was its Conc. at t = 2 hr (prodrug)? 920

---

Target: SHV-12 (Klebsiella pneumoniae, UniProt P0AD64, E235K/G234S/L31Q)
Sequence (P0AD64 22-286 L31Q/G234S/E235K): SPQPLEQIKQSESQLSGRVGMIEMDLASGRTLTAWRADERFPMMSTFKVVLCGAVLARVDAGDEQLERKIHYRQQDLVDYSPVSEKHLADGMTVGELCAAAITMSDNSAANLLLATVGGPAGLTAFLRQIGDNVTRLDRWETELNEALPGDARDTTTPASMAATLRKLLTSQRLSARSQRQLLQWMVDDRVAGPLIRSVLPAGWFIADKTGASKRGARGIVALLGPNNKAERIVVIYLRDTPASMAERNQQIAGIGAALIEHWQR
Assay: Inhibition of nitrocefin cleavage by purified enzyme (Ki)
Type: biochemical
Settings: nitrocefin reporter substrate, 10 min preincubation; read-out: Ki (SHV-12, NCF)
measurementType: Ki

Sample [N-]=[N+]=NCC(=O)N[C@H]1Cc2cccc(C(=O)O)c2OB1O — what was its Ki? < 1 nM

Sample O=CN[C@H]1Cc2cccc(C(=O)O)c2OB1O — what was its Ki? 1 to 10 nM

Sample O=C(N[C@H]1Cc2cccc(C(=O)O)c2OB1O)c1cncnc1 — what was its Ki? < 1 nM

Sample CN(C)C(=O)CC(=O)N[C@H]1Cc2cccc(C(=O)O)c2OB1O — what was its Ki? < 1 nM

Sample CSC(=O)N[C@H]1Cc2cccc(C(=O)O)c2OB1O — what was its Ki? < 1 nM

Sample O=C(COCc1ccccc1)N[C@H]1Cc2cccc(C(=O)O)c2OB1O [CPD B, reference compound] — what was its Ki? < 1 nM

Sample O=C(N[C@H]1Cc2cccc(C(=O)O)c2OB1O)c1cncs1 — what was its Ki? < 1 nM

Sample O=C(CSc1nncs1)N[C@H]1Cc2cccc(C(=O)O)c2OB1O — what was its Ki? < 1 nM

Sample Cn1nnnc1SCC(=O)N[C@H]1Cc2cccc(C(=O)O)c2OB1O — what was its Ki? < 1 nM

Sample O=C(N[C@H]1Cc2cccc(C(=O)O)c2OB1O)c1cncc(F)c1 — what was its Ki? < 1 nM

Sample Nc1nnc(C(=O)N[C@H]2Cc3cccc(C(=O)O)c3OB2O)s1 — what was its Ki? < 1 nM

Sample O=C(CSC(F)F)N[C@H]1Cc2cccc(C(=O)O)c2OB1O — what was its Ki? < 1 nM

Sample O=C(CSC(F)(F)F)N[C@H]1Cc2cccc(C(=O)O)c2OB1O — what was its Ki? < 1 nM

Sample O=C(Cc1cccs1)N[C@H]1Cc2cccc(C(=O)O)c2OB1O [CPD A, reference compound] — what was its Ki? < 1 nM

Sample NC(=O)N[C@H]1Cc2cccc(C(=O)O)c2OB1O — what was its Ki? 1 to 10 nM

Sample NC(=O)C(=O)N[C@H]1Cc2cccc(C(=O)O)c2OB1O — what was its Ki? 1 to 10 nM

Sample O=C(N[C@H]1Cc2cccc(C(=O)O)c2OB1O)c1cccnc1 — what was its Ki? < 1 nM

Sample NC(=O)CC(=O)N[C@H]1Cc2cccc(C(=O)O)c2OB1O — what was its Ki? < 1 nM

---

Experiment: Serum stability of prodrugs (hydrolysis by rat serum)
Format: in vitro ADME
Settings: 37° C.
Exercise: for every item that follows, state its recorded Measured Initial Conc. in Serum (prodrug).
Your answer is read as µg/mL, so omit the unit and give the number.

Sample CCCC(=O)OCOC(=O)c1cccc2c1OB(O)[C@@H](NC(=O)CSC)C2 — what was its Measured Initial Conc. in Serum (prodrug)? 31.2

Sample CSCC(=O)N[C@H]1Cc2cccc(C(=O)OCOC(=O)C(C)(C)C)c2OB1O — what was its Measured Initial Conc. in Serum (prodrug)? 1780

Sample CSCC(=O)N[C@H]1Cc2cccc(C(=O)OCOC(=O)OC(C)C)c2OB1O — what was its Measured Initial Conc. in Serum (prodrug)? 1660

Sample CCC(CC)C(=O)OCOC(=O)c1cccc2c1OB(O)[C@@H](NC(=O)CSC)C2 — what was its Measured Initial Conc. in Serum (prodrug)? 1380
